Target: T1, SYCE2-TEX12core (human, UniProt Q6PIF2 57-165; Q9BXU0 49-123, RED dye (Monolith NT Protein Labelling Kit RED) in the MST only; which chain not stated | RED dye (Monolith NT Protein Labelling Kit RED) in the MST only; which chain not stated)
T1 construct: SYCE2 core; TEX12 core; Unlabelled in the SEC, labelled in the MST; source: E. coli BL21(DE3), purified
T1 sequence (looked up) 1: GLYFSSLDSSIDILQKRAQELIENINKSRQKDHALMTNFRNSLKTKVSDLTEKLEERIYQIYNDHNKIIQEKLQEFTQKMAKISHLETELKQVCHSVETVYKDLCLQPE
T1 sequence (looked up) 2: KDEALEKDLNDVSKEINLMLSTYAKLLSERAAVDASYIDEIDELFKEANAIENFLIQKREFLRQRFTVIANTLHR
Assay: MST; SYCE3 titrated into 150 nM labelled SYCE2-TEX12core; Monolith NT.115, excitation and MST power 40 %; apparent affinity
Details: both partners purified
MEASURE: pKd
Please note pKd is a logarithmic value: minus log10 of concentration in mol/L. Answer with that number alone.

q: Would you mind telling me what pKd value was observed for SYCE3 (natural protein, human, UniProt A1L190 1-88, looked up, SYCE3 without a stated truncation; Dimer alone (SEC-MALS); one chain in the 2:1 complex with SYCP1; also called SYCE3 wild-type; free SYCE3; source: E. coli BL21(DE3), purified (Ni-NTA or amylose, TEV, anion exchange, SEC), alone or co-purified with SYCP1 constructs; not shown: His or His-MBP, N-terminal, cleaved) MDDADPEERNYDNMLKMLSDLNKDLEKLLEEMEKISVQATWMAYDMVVMRTNPTLAESMRRLEDAFVNCKEEMEKNWQELLHETKQRL ?
a: 4.66
